# protocol-details: physchem
# Assay type: physicochemical
# assay-setup: water
value-kind: solubility

Lab book: solubility of CC(C)(C)C(=O)Oc1ccc(S(=O)(=O)Nc2ccccc2C(=O)NCC(=O)O)cc1 [sivelestat sodium] noted as < 400 µg/mL
